Data provenance: PubChem BioAssay (NCI)

test system: SR leukemia; assay: NCI-60 one-dose screen, 48 h (100 = growth as untreated, 0 = no growth, -100 = all killed); conditions: 10 µM unless noted
About 83,000 compounds went through this panel and 20% of them were active in at least one assay; those are over-represented in the sample as a whole.
measured.endpoint: growth (%)

| compound | measured.endpoint | numeric.value |
| --- | --- | --- |
| COc1cc(/C(C)=C(\c2ccc(Cl)cc2)c2ccc(OCCN3CCCC3)cc2)ccc1F | growth | -25.3 |
| N#Cc1cccc(-c2ccc3c(c2)NC(=O)/C3=C\c2ccc[nH]2)c1 | growth | 3.89 |
| Cn1ccnc1C(=O)/C=C/c1ccc(CC(=O)NC2CCCCC2)cc1 | growth | 24.8 |
| COc1cc2c(cc1OC)C(=O)/C(=C/c1cc(C)c(O)c(C)c1)S2 | growth | 18.7 |
| COc1ccc(C/C(=C(\C)c2ccc(OCCN3CCCC3)cc2)c2ccc(OCCN3CCCC3)cc2)cc1 | growth | -32.6 |
| COc1cccc(-c2nc3occn3c2-c2ccnc(NCCCNS(=O)(=O)c3ccc(C(F)(F)F)cc3)n2)c1 | growth | 97.2 |
| CCN(CC)c1ccc(/C=N/NC(=O)CSc2nc3ccccc3c(=O)n2CCc2ccc(S(N)(=O)=O)cc2)c(O)c1 | growth | 13.8 |
| O=C(CCN1CCCC1)Nc1ccc2c(Nc3ccc(Br)cc3)c3ccccc3nc2c1 | growth | -22.6 |
| O=C(Cc1ccc(/C=C/C(=O)c2nccs2)cc1)Nc1ccccc1 | growth | 2.31 |
| CCOC(=O)Oc1c(OC)cc(C(=O)c2ccc(OC)c(OC(=O)CCl)c2OC)cc1OC | growth | 29.4 |
| O=[N+]([O-])c1ccc(NC(=S)N/N=C/c2cc3ccccc3n3nnnc23)cc1 | growth | 4.33 |
| COc1ccc(/C=C2\Oc3cc(OCCCCCN4CCCCC4)ccc3C2=O)cc1OC | growth | -26.1 |
| CCOC(=O)c1cc(C(=O)c2ccc(OC)c(OC)c2)n2ccc(/C=C/c3cc[n+](CC(=O)c4ccc(OC)c(OC)c4)cc3)cc12 | growth | 92.2 |
| O=C(C1CCC1)N1N=C(c2ccc(-n3ccc(C(F)(F)F)n3)cc2)CC1c1ccc[nH]1 (configuration not stated) | growth | 81.9 |
| CCCCCN1C=C/C(=C\C(=O)N(C)c2ccc(OC(F)(F)F)cc2)c2ccccc21 | growth | 100 |
| Cc1cccc(NC(=O)Nc2ccc(-c3ccc4c(c3)NC(=O)/C4=C\c3ccc[nH]3)cc2)c1 | growth | 23.6 |
| COC(=O)C1=C(C(=O)ON)[C@@H]2C=C[C@@]1([C@@H](Cc1ccccc1)Nc1ccccc1)O2 | growth | 8.17 |
| C[C@H]1[C@H](C)CC[C@]2(C(=O)NCC#CCN3CCN(C)CC3)CC[C@]3(C)C(=CC[C@@H]4[C@@]5(C)Cc6c([nH]c7ccccc67)C(C)(C)[C@@H]5CC[C@]43C)[C@H]12 | growth | 4.29 |
| Cc1ccc(NC(=O)Cc2ccc(/C=C/C(=O)c3ncc[nH]3)cc2)cc1 | growth | 7.24 |
| CNC(=O)c1cncc(Cn2nc(C)c(NC(=O)c3ccc(COc4ccc(C(F)(F)F)cc4C)cc3)c2C)c1 | growth | 25 |
| C=C1C(=O)O[C@H]2[C@H]1CC/C(CNC(=O)c1cccc3ccccc13)=C\CC[C@@]1(C)O[C@@H]21 | growth | 16.5 |
| C=C1C(=O)O[C@H]2[C@H]1CC/C(COC(=O)NCc1c[nH]c3ccc(Br)cc13)=C\CC[C@@]1(C)O[C@@H]21 | growth | 7.54 |
| COc1ccc(C(=O)c2cc(C)c(OC)c(C)c2)c(OC)c1OC(=O)C(Cl)Cl | growth | 16 |
| OCc1cnc2ccccc2c1NC1CCCCCC1 | growth | 91.4 |
| CCCCCCNC(=O)Oc1ccc(/C(=C(\C)c2ccccc2)c2ccc(OCCCN(C)C)cc2)cc1 | growth | 2.09 |
| Cc1cc2cc3ccc(N(C)C)cc3nc2cc1N | growth | -2.93 |
| O=C(O)c1ccc2c(c1)C(=O)N(Cc1ccccc1)C2=O | growth | 101 |
| COc1cc2cc(CN3CCN(c4nccc(-c5ccc6ccccc6c5)n4)CC3)c(=O)[nH]c2cc1OC | growth | -23.1 |
| O=S(=O)(NCCNc1nccc(-c2c(-c3cccc(O)c3)nc3occn23)n1)c1ccc(C(F)(F)F)cc1 | growth | 110 |
| CCCCOc1ccc(/C(C)=N/Nc2cc(C)nc3ccc(Br)cc23)cc1 | growth | -8.75 |
| C[C@@H](Nc1ncnc2ccc(-c3cnc(N)nc3)cc12)c1ccc(F)cc1 | growth | 85.3 |
| c1ccc(Cn2cnc3ccc(-c4nc(-c5ccc6c(c5)ncn6C5CCCCC5)cn5ccnc45)cc32)cc1 | growth | 5.45 |
| CCCCCC(=O)Oc1ccc(/C(=C(/C)Cc2ccc(OC)cc2)c2ccc(OCCCN(C)C)cc2)cc1 | growth | 10.9 |
| CCN(CC)CC[n+]1cc2cc(OC)c(OC)cc2c2ccc3cc4c(cc3c21)OCO4 | growth | -11.3 |
| CC(C)(C)c1cc(/C=N/NC(=O)c2ccccc2NC(=O)c2cccs2)c(O)c(C(C)(C)C)c1 | growth | -27.2 |
| COc1cccc(/C=N/NC(=O)c2cnn3c2NC(c2ccccc2)C3)c1Oc1ccccc1 (configuration not stated) | growth | 43.1 |
| CN(C)CCn1c2ccc(Br)cc2c2nc3ccccc3nc21 | growth | 11.2 |

====

test system: SK-MEL-2 melanoma; assay: NCI-60 one-dose screen, 48 h (100 = growth as untreated, 0 = no growth, -100 = all killed); conditions: 10 µM unless noted
Compounds without any hit were thinned out: in the full panel of roughly 83,000, 20% have a hit.
measured.endpoint: growth (%)

| compound | system.name | measured.endpoint | result.units | numeric.value |
| --- | --- | --- | --- | --- |
| O=C(CSc1nc2sc3c(c2c(=O)n1-c1ccc(Cl)cc1)CCCC3)Nc1nc(-c2cccc(Br)c2)cs1 | SK-MEL-2 melanoma | growth | % | 97 |
| C=C(C)[C@@H]1CC[C@]2(C(=O)N3CCN(C)CC3)CC[C@]3(C)[C@H](CC[C@@H]4[C@@]5(C)CC[C@H](OCCC#N)C(C)(C)[C@@H]5CC[C@]43C)[C@@H]12 | SK-MEL-2 melanoma | growth | % | 97.7 |
| COc1cc2c(-c3cc4c(cc3CNCCc3ccc5c(c3)OCO5)OCO4)cccc2c(OC)c1O | SK-MEL-2 melanoma | growth | % | 92.9 |
| Nc1c(C(=O)Nc2ccnc3ccccc23)sc2nc3c(cc12)CN(Cc1ccccc1)CC3 | SK-MEL-2 melanoma | growth | % | 101 |
| CCCOc1ccc(/C=N/Nc2cc(C)nc3ccc(Br)cc23)cc1 | SK-MEL-2 melanoma | growth | % | 93 |
| CC(Oc1ccc(C(=O)O)cc1C(F)(F)F)c1ccc(Oc2ccccc2)cn1 (stereo not given) | SK-MEL-2 melanoma | growth | % | 123 |
| O=S(=O)(NCCNc1nccc(-c2c(-c3cccc(F)c3)nc3sccn23)n1)c1ccc(Br)cc1 | SK-MEL-2 melanoma | growth | % | 71.7 |
| O=S(=O)(NCCNc1nccc(-c2c(-c3cccc(F)c3)nc3sccn23)n1)c1ccccc1 | SK-MEL-2 melanoma | growth | % | 51.8 |
| O=C(Nc1ccc(F)cc1)Nc1ccc(NC(=O)c2cc(Cl)nc3ccccc23)cc1 | SK-MEL-2 melanoma | growth | % | 90.3 |
| Cc1nc2sccn2c1-c1cn2ccsc2n1 | SK-MEL-2 melanoma | growth | % | 98 |
| Brc1ccc(Nc2csc(-c3ccccn3)n2)cc1 | SK-MEL-2 melanoma | growth | % | 96.4 |
| O=C1OC(Cc2ccccc2)C1c1ccccc1 (stereo not given) | SK-MEL-2 melanoma | growth | % | 102 |
| CC(=O)N1N=C(c2ccc(-n3ccc(C(F)(F)F)n3)c(F)c2)CC1c1ccc[nH]1 (stereo not given) | SK-MEL-2 melanoma | growth | % | 94 |
| CSc1nc2sc3cccc(Cl)c3n2c(=N)c1C#N | SK-MEL-2 melanoma | growth | % | 105 |
| N#C/C(=C\c1ccc(C(F)(F)F)cc1)c1cc2ccccc2[nH]1 | SK-MEL-2 melanoma | growth | % | 96.1 |
| Cc1c(C(=O)NCCC(=O)NO)sc2ncnc(Nc3ccc(F)c(Cl)c3)c12 | SK-MEL-2 melanoma | growth | % | 101 |
| COc1cc2oc(-c3cccc(C(=O)Nc4ccc(Br)cc4)c3)cc(=O)c2c(OC)c1OC | SK-MEL-2 melanoma | growth | % | 71.2 |
| Cc1cccc(-c2cn3ccnc3c(-c3ccc4ncn(Cc5ccccc5)c4c3)n2)c1 | SK-MEL-2 melanoma | growth | % | 93.7 |
| C=CCn1c(-c2ccc(-c3nc4ccc(C)cc4[nH]3)cc2)n[nH]c1=S | SK-MEL-2 melanoma | growth | % | 112 |
| COc1ccc(OC)c(CCn2cncc2-c2c[nH]c3ccccc23)c1 | SK-MEL-2 melanoma | growth | % | 73.5 |
| N#CC(C#N)=Cc1cc2ccccc2nc1Oc1ccc(C(F)(F)F)cc1 | SK-MEL-2 melanoma | growth | % | 103 |
| COc1cc2c(c(O)c1Br)C(=O)c1c(O)cc(C[C@H](C)O)cc1[C@H]2[C@H]1c2cc(C[C@H](C)O)cc(O)c2C(=O)c2c1cc(OC)c(Br)c2O | SK-MEL-2 melanoma | growth | % | -38.2 |
| Cc1cc(Cl)nc(N(CCNc2ccnc3cc(Cl)ccc23)Cc2ccccn2)n1 | SK-MEL-2 melanoma | growth | % | 69.5 |
| COc1cc2oc(-c3cccc(C(=O)Nc4ccccc4)c3)cc(=O)c2c(O)c1OC | SK-MEL-2 melanoma | growth | % | 65 |
| CCN(CC)CCCC(C)Nc1cc(O)cc2cccnc12 (stereo not given) | SK-MEL-2 melanoma | growth | % | 135 |
| COc1cc(NCCCCCNC(C)(C)C)c2ncccc2c1 | SK-MEL-2 melanoma | growth | % | 113 |
| O=C(c1nnc(Nc2ccccc2Br)o1)c1c[nH]c2ccccc12 | SK-MEL-2 melanoma | growth | % | 110 |
| COc1cc(/C=C\c2cc(OC)c(OC)c(OC)c2)cc(NC(=O)/C=C/c2cc(OC)c(OC)c(OC)c2)c1OC | SK-MEL-2 melanoma | growth | % | 47 |
| COc1cc2c(=O)n(CCCN(C)C)c3c4cc5c(cc4ccc3c2cc1OC)OCO5 | SK-MEL-2 melanoma | growth | % | 89 |
| CCNc1nc2ccc(Nc3ccnc4cc(Cl)ccc34)cc2[nH]1 | SK-MEL-2 melanoma | growth | % | 103 |
| O=S(=O)(NCCCNc1nccc(-c2c(-c3cccc(F)c3)nc3sccn23)n1)c1cccc(F)c1 | SK-MEL-2 melanoma | growth | % | 47.6 |
| N#Cc1c(NC(=O)NCc2ccccc2)sc2c1CCCCC2 | SK-MEL-2 melanoma | growth | % | 39.1 |
| O=C(O)c1ccc2c(c1)C(=O)N(Cc1ccccc1)C2=O | SK-MEL-2 melanoma | growth | % | 106 |
| N=C1C(c2nc3ccccc3s2)=C(O)CN1c1cc(Cl)cc(Cl)c1 | SK-MEL-2 melanoma | growth | % | 105 |
| CC(=O)Nc1cccc(-c2ccc3c(c2)NC(=O)/C3=C\c2ccc[nH]2)c1 | SK-MEL-2 melanoma | growth | % | 54.7 |
| N#CC1C(C#N)C2c3ccccc3C=CN2C1C(=O)c1ccc(Br)cc1 (stereo not given) | SK-MEL-2 melanoma | growth | % | 98.3 |
| CCN1CCN(CCNc2nccc(-c3c(-c4cccc(OC)c4)nc4occn34)n2)S1(=O)=O | SK-MEL-2 melanoma | growth | % | 93.6 |
| COc1ccc(C(=O)/C=C/c2cc3ccccc3n3nnnc23)cc1 | SK-MEL-2 melanoma | growth | % | 106 |
| O=S(=O)(NCCNc1nccc(-c2c(-c3cccc(O)c3)nc3occn23)n1)c1cccc(F)c1 | SK-MEL-2 melanoma | growth | % | 61.1 |
| COc1ccccc1NS(=O)(=O)c1cccc(C(=O)Nc2ccc(Br)cc2)c1 | SK-MEL-2 melanoma | growth | % | 57.7 |
